Hey, just so you know, these numbers are from patent US11925629B2.

IC50 values for the compounds below.
- ASSAYED_TARGET: ERK2 (Homo sapiens, UniProt P28482)
- Construct: purchased Jubilant Biosys
- Sequence (P28482 whole entry): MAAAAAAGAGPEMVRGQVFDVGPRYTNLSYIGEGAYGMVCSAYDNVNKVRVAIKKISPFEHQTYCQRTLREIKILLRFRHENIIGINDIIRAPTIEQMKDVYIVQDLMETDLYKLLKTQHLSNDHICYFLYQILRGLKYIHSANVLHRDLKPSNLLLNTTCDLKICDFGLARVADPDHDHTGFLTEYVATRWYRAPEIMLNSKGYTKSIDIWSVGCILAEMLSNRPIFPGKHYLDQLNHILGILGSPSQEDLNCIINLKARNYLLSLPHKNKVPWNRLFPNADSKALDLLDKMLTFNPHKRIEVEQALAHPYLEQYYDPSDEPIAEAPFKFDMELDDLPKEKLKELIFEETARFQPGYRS
- METHOD: ERK2 HTRF (biochemical) assay
- EXPERIMENTAL_PARAMETERS: HTRF biochemical assay
Counter-ions that a name gives are not always drawn.

[
  {
    "COMPOUND": "Cc1cnc(NC2CC(F)(F)C2)nc1-n1cnc(C(=O)N[C@H](CN)c2cccc(Cl)c2)c1",
    "OBSERVED_PROPERTY": "IC50",
    "READING": "≤ 50 nM"
  },
  {
    "COMPOUND": "Cc1cnc(NC2CCOCC2)nc1-n1cnc(C(=O)NCc2cc(F)cc(Cl)c2CO)c1",
    "OBSERVED_PROPERTY": "IC50",
    "READING": "≤ 50 nM"
  },
  {
    "COMPOUND": "Cc1cnc(Nc2ccccn2)cc1-n1ccc(C(=O)NC(CO)c2ccccc2)c1 (stereo not shown)",
    "OBSERVED_PROPERTY": "IC50",
    "READING": "≤ 50 nM"
  }
]

Please turn your attention to the following entry.
Fill in the blank: the reported IC50 of Cc1cnc(NC2CCOCC2)nc1-n1cnc(C(=O)N[C@H](CN)c2cccc(Cl)c2)c1 [Compound #298, hydrochloride salt] is ____. ≤ 50 nM

----------
- System: HCT116 (colorectal carcinoma, K Ras G13D) cells
- METHOD: Cell proliferation (Alamar Blue) assay, HCT116
- Assay type: cell-based, human
- EXPERIMENTAL_PARAMETERS: Homo sapiens, HCT-116, HCT116 cells
IC50 values for the compounds below.

Some entries whose results are on file:
[
  {
    "COMPOUND": "CNC[C@@H](NC(=O)c1cn(-c2nc(NC3CCOCC3)ncc2C)cn1)c1cccc(Cl)c1 [Example 326]",
    "OBSERVED_PROPERTY": "IC50",
    "READING": "≤ 100 nM"
  },
  {
    "COMPOUND": "Cc1cnc(Nc2ccc(F)cc2Cl)nc1-n1ccc(C(=O)NC(COC(=O)C(N)CC(C)C)c2ccccc2)c1 (stereo not drawn) [Example 150]",
    "OBSERVED_PROPERTY": "IC50",
    "READING": "> 2500 nM"
  },
  {
    "COMPOUND": "Cc1cnc(NC2CCOCC2)nc1-n1ccc(C(=O)NC(CO)c2ccccc2)c1 (stereo not drawn) [Example 120]",
    "OBSERVED_PROPERTY": "IC50",
    "READING": "> 2500 nM"
  },
  {
    "COMPOUND": "Cc1cnc(NC2CC(F)(F)C2)nc1-n1cnc(C(=O)N[C@H](CN)c2cccc(Cl)c2)c1 [Compound #259]",
    "OBSERVED_PROPERTY": "IC50",
    "READING": "≤ 100 nM"
  }
]

Fill in the blank: the reported IC50 of Cc1cccc(C(CO)NC(=O)c2cn(-c3nc(NC4CCOCC4)ncc3C)cn2)c1 (stereo not drawn) [Example 238] is ____. 500 to 2500 nM

Fill in the blank: the reported IC50 of Cc1cnc(Nc2ccc3c(c2)OCO3)nc1-n1cc(NC(=O)NC(CO)c2cccc(Cl)c2)cn1 (stereo not drawn) [Example 37] is ____. 500 to 2500 nM

Fill in the blank: the reported IC50 of COC[C@@H](NC(=O)c1ccn(-c2nc(Nc3ccc4c(c3)OCO4)ncc2C)c1)c1ccccc1 [Example 64] is ____. 500 to 2500 nM

Fill in the blank: the reported IC50 of Cc1cnc(Nc2ccc(F)cc2)nc1-n1cnc(C(=O)NCc2cccc(Cl)c2CO)c1 [Example 262] is ____. 500 to 2500 nM

Fill in the blank: the reported IC50 of O=C(Nc1cnn(-c2ccnc(NC3CC3)n2)c1)N[C@H](CO)c1cccc(Cl)c1 [Example 6] is ____. > 2500 nM

Fill in the blank: the reported IC50 of Cc1cnc(Nc2ccc(F)cc2Cl)nc1-n1ccc(C(=O)N[C@@H](CN(C)C)c2ccccc2)c1 [Example 97] is ____. > 2500 nM

Fill in the blank: the reported IC50 of COc1cc(C(=O)N2CCOCC2)c(F)cc1Nc1ncc(C)c(-n2ccc(C(=O)NC(CO)c3cccc(Cl)c3)c2)n1 (stereo not drawn) [Example 181] is ____. > 2500 nM

Fill in the blank: the reported IC50 of Cc1cnc(NC2CCCOC2)nc1-n1ccc(C(=O)N[C@H](CO)c2cccc(Cl)c2)c1 (stereo partly drawn) [Example 152] is ____. 500 to 2500 nM

Fill in the blank: the reported IC50 of Cc1cnc(NC2CCOCC2)nc1-n1cnc(C(=O)NCc2nc(Cl)sc2C)c1 [Example 328] is ____. > 2500 nM

----------
IC50 values for the compounds below.
- Test system: HCT116 (colorectal carcinoma, K Ras G13D) cells
- METHOD: Cell proliferation (Alamar Blue) assay, HCT116
- Type: cell-based, human
- EXPERIMENTAL_PARAMETERS: Homo sapiens, HCT-116, HCT116 cells

[
  {
    "COMPOUND": "O=C(Nc1cnn(-c2ccnc(Nc3ccccc3)c2)c1)N[C@H](CO)c1cccc(Cl)c1 [Example 34]",
    "OBSERVED_PROPERTY": "IC50",
    "READING": "> 2.5 µM"
  },
  {
    "COMPOUND": "Cc1cnc(Nc2ccc3c(c2)OCO3)nc1-n1ccc(C(=O)NC(CO)c2cccnc2)c1 (centres unmarked) [Example 103]",
    "OBSERVED_PROPERTY": "IC50",
    "READING": "> 2.5 µM"
  },
  {
    "COMPOUND": "Cc1cnc(N[C@H]2CCOC2)nc1-n1cnc(C(=O)NCc2cccc(Cl)c2C)c1 [Example 331]",
    "OBSERVED_PROPERTY": "IC50",
    "READING": "0.5 to 2.5 µM"
  },
  {
    "COMPOUND": "Cc1cnc(Nc2ccc3c(c2)OCO3)nc1-n1cnc(C(=O)N[C@H](CO)c2cccc(Cl)c2)c1 [Example 48]",
    "OBSERVED_PROPERTY": "IC50",
    "READING": "0.5 to 2.5 µM"
  },
  {
    "COMPOUND": "CC[C@@H](CO)Nc1ncc(C)c(-n2ccc(C(=O)N[C@H](CO)c3ccc(F)c(Cl)c3)c2)n1 [Example 133]",
    "OBSERVED_PROPERTY": "IC50",
    "READING": "0.5 to 2.5 µM"
  },
  {
    "COMPOUND": "Cc1cnc(Nc2cccc(N3CCOCC3)c2)nc1-n1cnc(C(=O)N[C@H](CN)c2cccc(Cl)c2)c1 [Example 272]",
    "OBSERVED_PROPERTY": "IC50",
    "READING": "0.1 to 0.25 µM"
  },
  {
    "COMPOUND": "Cc1cnc(NC2CCNC2)nc1-n1ccc(C(=O)N[C@H](CO)c2cccc(Cl)c2)c1 (some centres unmarked) [Example 174]",
    "OBSERVED_PROPERTY": "IC50",
    "READING": "> 2.5 µM"
  }
]

Please turn your attention to the following entry.
Request body: readout IC50, system HCT116 (colorectal carcinoma, K Ras G13D) cells, query O=C(Nc1cnn(-c2ccnc(Nc3ccccc3)c2)c1)NC(CO)c1cccc(Cl)c1 (centres unmarked) [Example 33] . Return the value. > 2.5 µM

----------
- Test system: HCT116 (colorectal carcinoma, K Ras G13D) cells
- METHOD: Cell proliferation (Alamar Blue) assay, HCT116
- Assay type: cell-based, human
- EXPERIMENTAL_PARAMETERS: Homo sapiens, HCT-116, HCT116 cells
OBSERVED_PROPERTY: IC50

[
  {
    "COMPOUND": "O=C(NC(CO)c1cccc(Cl)c1)c1ccn(-c2ccnc(Nc3ccccc3)c2)c1 (centres unmarked)",
    "OBSERVED_PROPERTY": "IC50",
    "READING": "> 2500 nM"
  },
  {
    "COMPOUND": "Cc1cnc(NC2CCOCC2)nc1-n1cnc(C(=O)NC(CO)c2cccc(Cl)c2)c1 (centres unmarked)",
    "OBSERVED_PROPERTY": "IC50",
    "READING": "500 to 2500 nM"
  },
  {
    "COMPOUND": "Cc1cnc(Nc2ccc3c(c2)OCO3)nc1-n1ccc(C(=O)NC(CO)c2cc(Cl)cc(Cl)c2)c1 (centres unmarked)",
    "OBSERVED_PROPERTY": "IC50",
    "READING": "> 2500 nM"
  },
  {
    "COMPOUND": "CC[C@@H](CO)Nc1ncc(C)c(-n2ccc(C(=O)N[C@H](CO)c3cccc(Cl)c3)c2)n1",
    "OBSERVED_PROPERTY": "IC50",
    "READING": "500 to 2500 nM"
  },
  {
    "COMPOUND": "Cc1cnc(Nc2ccc3c(c2)OCCO3)nc1-n1ccc(C(=O)NC(CO)c2ccccc2)c1 (centres unmarked)",
    "OBSERVED_PROPERTY": "IC50",
    "READING": "250 to 500 nM"
  }
]

Fill in the blank: the reported IC50 of Cc1cnc(Nc2ccc(F)c(N3CCOCC3)c2)nc1-n1cnc(C(=O)NC(CO)c2cccc(Cl)c2)c1 (centres unmarked) is ____. 250 to 500 nM

Fill in the blank: the reported IC50 of Cc1cnc(NC2CCNCC2)nc1-n1cnc(C(=O)NC(CO)c2cccc(Cl)c2)c1 (centres unmarked) is ____. > 2500 nM

Fill in the blank: the reported IC50 of CN(C(=O)Nc1cnn(-c2ccnc(NC3CC3)n2)c1)[C@H](CO)c1ccccc1 is ____. > 2500 nM

Fill in the blank: the reported IC50 of Cc1cnc(NC2CCOCC2)nc1-n1cnc(C(=O)N[C@H](CN)c2cc(F)cc(Cl)c2)c1 is ____. ≤ 100 nM

Fill in the blank: the reported IC50 of O=C(NC(CO)c1cccc(Cl)c1)c1ccn(-c2ccnc(Nc3ccc(F)cc3Cl)n2)c1 (centres unmarked) is ____. > 2500 nM
